The origin of these recorded values is patent US20070197430A1.

Target: Bcl-xL ΔC25 (Homo sapiens, UniProt Q07817)
Assay: SPR, Biacore S51, direct binding
Bridge positions count the residues as written; N and C are the ends.
outcome_measure: Kd (nM)

[I] Ac-IAQELRRIGDEF-NH2 (linker 4-11 via 1,5‑diaminopentane) [Acetyl-IAQ(E1)LRRIGD(E2)F-amide with a 1,5-diaminopentane linker (second position)]
[II] Ac-IAQELRRIGDEF-NH2 [Linear 12mer Ac-…-NH2]
// compare: I vs II , metric Kd, want the smaller Let me know the label of the one you choose.
I
